- Test system: LOX IMVI melanoma
- Measurement Description: NCI-60 one-dose screen, 48 h
- Condition Notes: 10 µM unless noted
About 83,000 compounds went through this panel and 20% of them were active in at least one assay; those are over-represented in the sample as a whole. Activity calls are given as the source filed them. Rule for the calls: active = growth percent below 10; inactive = the rest.
Permitted responses: YES for active, NO for inactive

CC1=CC2(C)/C=C(C)/C=C\CC(O)/C=C3/C=CC(=C4C(=O)OC2(CC1C)C4=O)OC3 (stereo not given) :: YES
CCCCCCCCOC(=O)c1ccc(O)c(OC)c1 :: NO
Clc1ccc2c(c1)c(-c1ccccc1)nc1nncn12 :: NO

*Q* Given O=S(=O)(NCCCNc1nccc(-c2c(-c3ccccc3)nc3occn23)n1)c1ccc(Cl)cc1 , state the outcome it received in this test.
*A* NO

*Q* Given COc1nccnn1 , state the outcome it received in this test.
*A* NO

*Q* Given CNC(=O)c1c(NC(=O)c2ccc(C(C)C)cc2)sc2c(CN(C)C)c(O)ccc12 , state the outcome it received in this test.
*A* NO

*Q* Given Cc1[nH]c(C(=O)Nc2ccccc2OCc2cccc(C(=O)NCCN)c2)c(Cl)c1Cl , state the outcome it received in this test.
*A* YES

*Q* Given COc1cc(C2CC(c3cccc(Nc4ccncc4)c3)=NN2c2cc(Cl)cc(Cl)c2)cc(OC)c1OC (stereo not given) , state the outcome it received in this test.
*A* YES

*Q* Given CCOC(=O)C1=C(C)NC(C)=C(C(=O)OCC)C1c1cc(Br)c(O)c(OC)c1 , state the outcome it received in this test.
*A* NO

*Q* Given COc1ccc(C(O)c2cc3c(N)c(C(=O)Nc4cccc(Br)c4C)sc3nc2C)cc1 (stereo not given) , state the outcome it received in this test.
*A* NO
